pKi: −log10 of the molar value.
Please consider the recorded pKi for 5-HT1B (Homo sapiens) in what follows.
MEASURED_METRIC: pKi

COMPOUND: CS(=O)(=O)Nc1ccc(CCN2CCN(c3cccc(C(F)(F)F)c3)CC2)cc1 [reference compound]
MEASURED_METRIC: pKi
OBSERVED_RESULT: 8.02

COMPOUND: CS(=O)(=O)Nc1cccc(CCN2CCN(c3cccc(C(F)(F)F)c3)CC2)c1
MEASURED_METRIC: pKi
OBSERVED_RESULT: 8.77

---

pKi: −log10 of the molar value.
Please consider the recorded pKi for 5-HT1A (Homo sapiens) in what follows.

COMPOUND: CS(=O)(=O)Nc1ccc(CCN2CCN(c3cccc(C(F)(F)F)c3)CC2)cc1 [reference compound]
pKi: 8.46
//
COMPOUND: CS(=O)(=O)Nc1cccc(CCN2CCN(c3cccc(C(F)(F)F)c3)CC2)c1
pKi: 9.02

---

Please consider the recorded pKi for 5-HT7 (Homo sapiens, UniProt P34969) in what follows.
pKi: −log10 of the molar value.

COMPOUND: CS(=O)(=O)Nc1cccc(CCN2CCN(c3cccc(C(F)(F)F)c3)CC2)c1 [LY217101]
pKi: 6.98

COMPOUND: CS(=O)(=O)Nc1ccc(CCN2CCN(c3cccc(C(F)(F)F)c3)CC2)cc1 [reference compound]
pKi: 7.35

---

System: Adult female cats
Assay: Transvesical cystometrograms and periurethral EMG in anesthetized cats, acetic acid infusion
Details: anesthetized cat, i.v., cumulative doses, acetic acid infusion

MOLECULE: CN(C)CCc1c[nH]c2ccc(C[C@H]3COC(=O)N3)cc12 [zolmitriptan, reference compound]
bladder capacity: dose-dependent increases
//
MOLECULE: CS(=O)(=O)Nc1cccc(CCN2CCN(c3cccc(C(F)(F)F)c3)CC2)c1 [LY217101]
bladder capacity: dose-dependent increases
//
MOLECULE: COc1ccc(NC(=O)c2ccc(-c3ccc(-c4noc(C)n4)cc3C)cc2)cc1N1CCN(C)CC1 [GR127935, reference compound]
bladder capacity: dose-dependent increases
//
MOLECULE: COc1ccc(CNC(=O)/C=C/c2ccc3[nH]cc(CCN(C)C)c3c2)cc1 [GR46611, reference compound]
bladder capacity: dose-dependent increases

---

Molecular target: 5-HT1E (Homo sapiens, UniProt P28566)
Sequence (P28566 whole entry): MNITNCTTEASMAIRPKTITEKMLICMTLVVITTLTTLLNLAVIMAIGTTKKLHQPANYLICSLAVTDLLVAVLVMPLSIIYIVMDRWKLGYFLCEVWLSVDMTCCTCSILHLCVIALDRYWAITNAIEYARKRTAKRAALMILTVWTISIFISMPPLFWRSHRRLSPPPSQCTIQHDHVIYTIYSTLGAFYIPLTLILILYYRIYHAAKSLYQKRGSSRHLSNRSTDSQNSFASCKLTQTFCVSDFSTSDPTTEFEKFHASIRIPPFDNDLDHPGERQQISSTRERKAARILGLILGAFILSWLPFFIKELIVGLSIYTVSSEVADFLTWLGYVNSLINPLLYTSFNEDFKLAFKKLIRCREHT
pKi: −log10 of the molar value.
MEASURED_METRIC: pKi

SMILES_ENTRY: CS(=O)(=O)Nc1cccc(CCN2CCN(c3cccc(C(F)(F)F)c3)CC2)c1
TARGET: 5-HT1E (Homo sapiens, UniProt P28566)
OBSERVED_RESULT: 5.41

---

Molecular target: 5-HT1F (Homo sapiens, UniProt P30939)
Sequence (P30939 1-366): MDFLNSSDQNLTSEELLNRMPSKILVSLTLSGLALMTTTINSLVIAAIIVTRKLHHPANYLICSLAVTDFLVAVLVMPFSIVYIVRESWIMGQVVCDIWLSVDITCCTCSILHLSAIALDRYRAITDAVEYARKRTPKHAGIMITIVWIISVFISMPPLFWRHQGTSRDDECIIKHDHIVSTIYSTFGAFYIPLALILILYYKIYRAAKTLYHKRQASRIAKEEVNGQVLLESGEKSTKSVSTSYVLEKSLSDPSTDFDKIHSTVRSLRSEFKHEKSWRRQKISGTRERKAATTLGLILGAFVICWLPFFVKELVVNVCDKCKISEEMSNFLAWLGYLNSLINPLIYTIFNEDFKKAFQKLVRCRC

MOLECULE: CS(=O)(=O)Nc1cccc(CCN2CCN(c3cccc(C(F)(F)F)c3)CC2)c1 [LY217101]
Ki: 32.3 nM
